- Target or system: T1, TPR domain (residues 166–330) of human AIP (aryl hydrocarbon receptor interacting protein), wild type (human, UniProt O00170 166-330)
- T1 construct: Residues Asp 172 to Arg 325 were visible in the TOMM20 peptide structure; also called AIP TPR-domain; WT
- T1 sequence (looked up): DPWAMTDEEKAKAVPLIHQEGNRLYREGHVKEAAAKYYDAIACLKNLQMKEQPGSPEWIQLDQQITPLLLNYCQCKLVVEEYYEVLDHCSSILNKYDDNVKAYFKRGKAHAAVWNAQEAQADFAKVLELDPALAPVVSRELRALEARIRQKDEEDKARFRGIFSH
- Assay summary: ITC; twenty 1.9 µL aliquots of peptide (350 to 600 µM) injected into 30 µM AIP TPR-domain; 20 mM Tris pH 7.5, 5 mM NaCl, 30°C
- Assay conditions: both partners purified
Use Satisfied when the recorded dH is no lower than -20 kJ/mol; use Not satisfied when it is lower.

{"Binder": "MEEVD (extreme C-terminal five residues of HSP90; also called MEEVD (HSP90)) [MEEVD peptide (HSP90)]", "Answer label": "Satisfied"}
{"Binder": "DDTSRMEEVD (extreme C-terminus of human HSP90α) [DDTSRMEEVD peptide (human HSP90α C-terminus)]", "Answer label": "Satisfied"}
{"Binder": "TLEELDW (also called TLEELDW (hPDE4A5); PDE4A5 peptide) [TLEELDW peptide (PDE4A5)]", "Answer label": "Satisfied"}

Task item: For this binder, is measured dH -20 kJ/mol or higher? GSGPTIEEVD (C-terminus of human HSP70; also called HSP70 peptide) [GSGPTIEEVD peptide (human HSP70 C-terminus)]
Reply: Not satisfied

Task item: For this binder, is measured dH -20 kJ/mol or higher? AQSLAEDDVE (extreme C-terminus of human TOMM20; Only AEDDVE was visible in the crystal structure) [AQSLAEDDVE peptide (human TOMM20 C-terminus)]
Reply: Not satisfied
